Source of measurements: ChEMBL document CHEMBL1132160

system: Human alphaherpesvirus 2; test: Inhibitory activity against herpes simplex virus type 2 (HSV-2) G strain; type: functional, organism-based
measurement_name: EC50

System Human alphaherpesvirus 2. Read-out EC50. Item Nc1cc2ncn(CCOCP(=O)(O)O)c2c(O)n1 . Report value. > 200 µg/mL

// fetch EC50 for Nc1nc(O)nc2c1ncn2CCOCP(=O)(O)O ; system: Human alphaherpesvirus 2 > 400 µg/mL

# return EC50 for Nc1ccnc2c1ncn2CCOCP(=O)(O)O , test system: Human alphaherpesvirus 2 > 400 µg/mL

Report the value of EC50 obtained on Human alphaherpesvirus 2 for Nc1nccc(OCCOCP(=O)(O)O)n1 . > 200 µg/mL

# return EC50 of CC(C)OP(=O)(COCCn1cnc2nc(N)nc(O)c21)OC(C)C (system: Human alphaherpesvirus 2) > 200 µg/mL

Report the value of EC50 obtained on Human alphaherpesvirus 2 for O=P(O)(O)COCCn1cnc2c(S)ncnc21 . > 400 µg/mL
